# targetDesc: T1, recombinant human IGSF8 extracellular domain tagged by a human Fc region (IGSF8-hFc) (human, UniProt Q969P0 28-579, biotin label in Examples 17, 18 and 28 (site not given))
# T1 construct: also called IGSF8-Fc fusion protein; IGSF8-hFc-biotin; not shown: human Fc region
# T1 sequence: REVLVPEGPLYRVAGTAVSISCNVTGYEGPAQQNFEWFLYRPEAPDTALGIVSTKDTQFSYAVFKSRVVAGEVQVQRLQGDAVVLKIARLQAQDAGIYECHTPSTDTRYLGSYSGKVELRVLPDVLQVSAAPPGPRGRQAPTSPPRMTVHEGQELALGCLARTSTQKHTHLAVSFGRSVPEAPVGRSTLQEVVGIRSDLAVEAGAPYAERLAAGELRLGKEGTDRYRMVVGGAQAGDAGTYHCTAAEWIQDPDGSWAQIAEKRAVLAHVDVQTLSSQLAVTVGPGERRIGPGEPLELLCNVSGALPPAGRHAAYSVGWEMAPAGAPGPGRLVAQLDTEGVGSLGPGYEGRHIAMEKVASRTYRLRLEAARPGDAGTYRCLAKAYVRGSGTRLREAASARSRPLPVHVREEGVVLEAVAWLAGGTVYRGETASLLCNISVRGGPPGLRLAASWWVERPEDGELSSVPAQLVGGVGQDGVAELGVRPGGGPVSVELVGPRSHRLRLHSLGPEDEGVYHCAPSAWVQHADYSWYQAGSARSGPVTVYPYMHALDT
# assayComment: SPR, Ab captured
pKd: −log10 of the molar value.
Parameter threshold = 8. Response is met when pKd meets or exceeds it, else not met.

Q: Could you verify whether the entry L1VL-P46L (antibody, V domains shown) VH: QVQLVESGGGVVQPGRSLRLSCAASGFTFSTYGMHWVRQAPGKGLEWVAVIWDDGSYKYYGDSVKGRFTISRDNSKNTLYLQMNSLRAEDTAVYYCARDGSGWGYAFDIWGQGTMVTVSS VL: DIQLTQSPSSLSASVGDRVTITCQASQDISEYLNWYQHKPGKAPNLLVFDAANLETGVPPRFSATGSGTDFSLTITSLQPEDFATYYCQQYDSFPYTFGQGTRLDIK shows pKd of no less than 8?
Ans: not met
